- Test system: A549
- PROTOCOL: Cytotoxicity against human A549 cells after 72 hrs by MTT assay
- Assay type: functional, cell-based
- CONDITION PARAMETERS: A549, 72 h
The entries below are paired with their reported IC50.
QUANTITY KIND: IC50 (µM)

COCCOc1cc2ncnc(Nc3ccccc3N(CCCl)CCCl)c2cc1OCCOC = 33.1
COc1cc2ncnc(Nc3ccccc3N(CCCl)CCCl)c2cc1OC = 81.5
COc1cc2ncnc(Nc3cccc(N(CCCl)CCCl)c3)c2cc1OC(C)=O = 39.1
COc1cc2ncnc(Nc3cccc(N(CCCl)CCCl)c3)c2cc1O = 33
COc1cc2ncnc(Nc3ccc(N(CCCl)CCCl)cc3)c2cc1OCCCN1CCOCC1 = 27.7
COc1cc2ncnc(Nc3ccccc3N(CCCl)CCCl)c2cc1OC(C)=O = 62.9
COCCOc1cc2ncnc(Nc3cccc(N(CCCl)CCCl)c3)c2cc1OCCOC = 77.4
COc1cc2ncnc(Nc3cccc(N(CCCl)CCCl)c3)c2cc1OCCCN1CCOCC1 = 6.71
COc1cc2ncnc(Nc3ccc(N(CCCl)CCCl)cc3)c2cc1OC(C)=O = 28.8
COc1cc2ncnc(Nc3ccc(N(CCCl)CCCl)cc3)c2cc1O = 53.4
CNC(=O)c1cc(Oc2ccc(NC(=O)Nc3ccc(Cl)c(C(F)(F)F)c3)cc2)ccn1 = 27.7
